Recorded IC50, one value per entry.
Biological target: human recombinant ENPP1 enzymes (Homo sapiens, UniProt P22413)
Sequence (P22413 1-925): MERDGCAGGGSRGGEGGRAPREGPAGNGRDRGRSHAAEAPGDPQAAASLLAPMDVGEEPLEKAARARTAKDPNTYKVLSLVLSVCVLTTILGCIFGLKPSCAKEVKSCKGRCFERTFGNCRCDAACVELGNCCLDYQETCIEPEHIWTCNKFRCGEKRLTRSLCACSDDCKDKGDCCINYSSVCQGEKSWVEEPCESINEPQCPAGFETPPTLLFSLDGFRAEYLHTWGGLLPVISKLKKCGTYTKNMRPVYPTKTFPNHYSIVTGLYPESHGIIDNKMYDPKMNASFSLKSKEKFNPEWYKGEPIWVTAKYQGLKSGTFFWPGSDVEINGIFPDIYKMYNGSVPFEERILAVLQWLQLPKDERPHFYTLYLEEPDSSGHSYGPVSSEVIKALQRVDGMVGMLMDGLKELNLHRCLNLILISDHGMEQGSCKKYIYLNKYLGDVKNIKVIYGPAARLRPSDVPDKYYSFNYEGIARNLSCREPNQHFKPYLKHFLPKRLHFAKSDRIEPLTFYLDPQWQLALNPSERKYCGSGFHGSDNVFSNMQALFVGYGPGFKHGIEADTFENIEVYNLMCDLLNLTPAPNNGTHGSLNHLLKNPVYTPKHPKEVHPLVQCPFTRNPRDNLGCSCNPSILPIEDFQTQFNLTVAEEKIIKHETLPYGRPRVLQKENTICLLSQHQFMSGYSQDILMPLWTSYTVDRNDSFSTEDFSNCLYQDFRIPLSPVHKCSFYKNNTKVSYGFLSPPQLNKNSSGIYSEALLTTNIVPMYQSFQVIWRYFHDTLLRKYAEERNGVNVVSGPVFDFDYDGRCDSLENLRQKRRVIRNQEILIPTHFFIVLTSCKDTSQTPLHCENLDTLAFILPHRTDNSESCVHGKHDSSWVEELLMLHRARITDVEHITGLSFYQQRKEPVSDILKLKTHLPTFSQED
Test: ENPP1 Enzyme Assay with cGAMP Substrate (AMP-Glo)
Settings: human recombinant ENPP1 3 ng/reaction, cGAMP 5 μM, 37° C. 90 minutes, average of two or more tests; read-out: Enzymatic activity IC50
Where a name gives a salt, the structure may show the parent alone.

| Compound | Reading |
| --- | --- |
| CS(=O)(=O)NCc1cccc(-c2ccnc3c2CCC(=O)N3)c1 | 1000 to 10000 nM |
| Cl.Nc1ccc(F)c(-c2ccnc3[nH]c(=O)ccc23)c1 [Example 8, hydrochloride] | > 10000 nM |
| NS(=O)(=O)N1CCc2cc(F)c(-c3ccnc4[nH]c(=O)ccc34)cc2C1 [Example 66, hydrochloride] | < 1000 nM |
| NS(=O)(=O)N1Cc2ccc(Nc3ccnc4[nH]c(=O)ccc34)cc2C1 [Example 101, dihydrochloride] | < 1000 nM |

Shifting focus to the compound that follows.
Lookup: # input compound: `NS(=O)(=O)Nc1ccc(-c2ccnc3[nH]c(=O)ccc23)cc1` ; wanted: its IC50
Found: 1000 to 10000 nM
